# Tested on: Malme-3M
# assay-procedure: NCI tumour cell line growth inhibition, 48 h
Activity calls are given as the source filed them. No stated cut-off is given here; in the data, active = GI50 up to about 1.1 µM and inactive = higher.
Measured GI50 by item

Worked set:
molecule=O=C(CCc1nnc2s/c(=C\c3ccc([N+](=O)[O-])cc3)c(=O)n12)Nc1ccc(Cl)c(Cl)c1 measured_property=GI50 result="29.4 µM (inactive)"
molecule=O=C1C(SCCO)=C(SCCO)C(=O)c2ccccc21 measured_property=GI50 result="1.1 µM (active)"
molecule=COc1cc(O)c2c(O)c3c(c4c2c1[C@]1(C4)C(C)=CCCC1(C)C)[C@H](O)[C@@]1(O)CC(O)=C(C(N)=O)C(=O)[C@@]1(O)C3=O measured_property=GI50 result="0.158 µM (active)"
molecule=C1CNCCN2CCCNCCN(C1)CC2 measured_property=GI50 result="> 100 µM (inactive)"
molecule=COc1ccc2c(=O)c(O)c(-c3ccc(OC)c(OC)c3)oc2c1 measured_property=GI50 result="15.1 µM (inactive)"

QUERY: Form field: GI50 recorded for O=c1cc(CC(O)(C(F)(F)Cl)C(F)(F)Cl)[nH]n1-c1ccccc1 with Malme-3M (enter value)
RESULT: > 100 µM (inactive)

QUERY: Form field: GI50 recorded for COc1ccc2c(-c3ccc(OCCN(C)C)cc3)c(Oc3ccccc3)c(=O)oc2c1 with Malme-3M (enter value)
RESULT: 3.12 µM (inactive)

QUERY: Form field: GI50 recorded for COC1=CC(=O)[C@]2(C)[C@H](C1=O)C(C)[C@H]2c1ccccc1 (some centres undefined) with Malme-3M (enter value)
RESULT: > 100 µM (inactive)

QUERY: Form field: GI50 recorded for COc1cc(/C=C/C(=O)CC(=O)/C=C/c2ccc(OC(=O)CCCCC3CCSS3)c(OC)c2)ccc1OC(=O)CCCCC1CCSS1 (centres undefined) with Malme-3M (enter value)
RESULT: > 100 µM (inactive)

----------
# Test system: RXF 393
# assay-procedure: NCI tumour cell line growth inhibition, 48 h
The source made the active and inactive calls. No stated cut-off is given here; in the data, active = GI50 up to about 1.1 µM and inactive = higher.
A correct response names exactly one class from Yes for active, No for inactive

Below, 6 molecules whose answers are already recorded.
molecule=CN(C)CCNC(=O)c1cccc2[nH]c(-c3ccncc3)nc12 category=No
molecule="COc1cc(/C=C/C(=O)CC(=O)/C=C/c2ccc(OC(=O)CCCCC3CCSS3)c(OC)c2)ccc1OC(=O)CCCCC1CCSS1 (stereo not given)" category=No
molecule=N#CCCN(C(=O)Nc1ccc(NC(=O)N(CCC#N)c2ccccc2)cc1)c1ccccc1 category=No
molecule=CC(=O)Oc1c(OC(C)C)c(C)c(O[Si](C(C)C)(C(C)C)C(C)C)c2[nH]c3ccccc3c12 category=No
molecule="CC(=O)OC1(C#N)CC2OC1C1N=NN(C(=O)OC(C)(C)C)C21 (stereo not given)" category=No
molecule=C[n+]1[n-]o/c(=N\N=O)c1-c1cc(-c2/c(=N/N=O)o[n-][n+]2C)cc(-c2/c(=N\N=O)o[n-][n+]2C)c1 category=No

QUERY: // outcome(item) with item = C=CC[P@]1(=O)O[C@H](c2ccccc2)[C@H](C)N1C
RESULT: No

QUERY: // outcome(item) with item = Oc1ccc2ccccc2c1C(c1ccc(Cl)cc1)c1c(O)ccc2ccccc12
RESULT: No

QUERY: // outcome(item) with item = CCOC(=O)CCn1[nH]c(=O)c(Cl)c(Cl)c1=O
RESULT: No

QUERY: // outcome(item) with item = O=C(Nc1cccc(NC(=O)c2cc(=O)c3ccccc3o2)n1)c1cc(=O)c2ccccc2o1
RESULT: No

QUERY: // outcome(item) with item = Cn1c(=O)c2c(nc3n(C)c(=O)c4ccccc4n23)n(C)c1=O
RESULT: No

QUERY: // outcome(item) with item = COC1=CC(=O)c2c(c(COC(C)=O)cn2C)C1=O
RESULT: Yes

QUERY: // outcome(item) with item = COc1cccc(C2c3cc4c(cc3OC(C)(N3CCCC3)C2C)OCO4)c1 (stereo not given)
RESULT: No

QUERY: // outcome(item) with item = CCCCCC(=O)N[C@@H](c1ccco1)[C@@H](O)C(=O)O[C@H]1C[C@@]2(O)[C@@H](OC(=O)c3ccccc3)[C@@H]3[C@]4(OC(C)=O)CO[C@@H]4C[C@H](O)[C@@]3(C)C(=O)[C@H](OC(C)=O)C(=C1C)C2(C)C
RESULT: Yes

QUERY: // outcome(item) with item = CNC(=S)/C(C#N)=C(\N)N1CCCC1
RESULT: No

QUERY: // outcome(item) with item = Cc1cc(-c2nc3cc(F)ccc3s2)ccc1N
RESULT: No

QUERY: // outcome(item) with item = CC(=O)Nc1ccccc1[S+]([O-])c1ccccc1 (stereo not given)
RESULT: No

QUERY: // outcome(item) with item = c1cc(-c2csc(-c3ccsc3)c2)cs1
RESULT: No

QUERY: // outcome(item) with item = C=C(C(=O)O)C1CCC(CC/C=C(\C)CC/C=C(\C)CCC=C(C)C)CO1 (stereo not given)
RESULT: No

QUERY: // outcome(item) with item = COc1ccc2c(-c3ccc(OCCN(C)C)cc3)c(Oc3ccccc3)c(=O)oc2c1
RESULT: No

----------
# System: SK-MEL-2
# assay-procedure: NCI tumour cell line growth inhibition, 48 h
Active and inactive are the calls of the source. Cut-off read from the data, not from the text of the source: active = GI50 up to about 1.1 µM and inactive = higher.
A correct response names exactly one class from YES for active, NO for inactive

Below, 8 compounds whose answers are already recorded.
compound=COC1=CC(=O)c2c(c(COC(C)=O)cn2C)C1=O target_of_assay=SK-MEL-2 category=YES
compound="COc1cccc(NC(=O)C(=O)C(C(=O)c2ccccc2F)C2OC(=O)c3ccccc32)c1 (configuration not stated)" target_of_assay=SK-MEL-2 category=NO
compound=C#CCN(C)C(=O)N(CC#C)N=O target_of_assay=SK-MEL-2 category=NO
compound=CCOc1ccc(NC(=O)C(=O)Nn2c(N)nnc2N)cc1 target_of_assay=SK-MEL-2 category=NO
compound=COC(=O)[C@@H]1CO[C@H](C(C)(C)C)N1C(=O)N1C=CC(=O)C[C@H]1C target_of_assay=SK-MEL-2 category=NO
compound=C(#CC1(Nc2ccccc2)CCN(Cc2ccccc2)CC1)C1(Nc2ccccc2)CCN(Cc2ccccc2)CC1 target_of_assay=SK-MEL-2 category=NO
compound=c1ccc([P+](c2ccccc2)(c2ccccc2)c2ccc([P+](c3ccccc3)(c3ccccc3)c3ccccc3)cc2)cc1 target_of_assay=SK-MEL-2 category=NO
compound=Cc1cccc2sc(-c3ccc(O)cc3)nc12 target_of_assay=SK-MEL-2 category=NO

Turning now to a further record.
QUERY: // outcome(item) with item = CCCCCCCCCCCCCCCC(=O)OCC1OC(n2ccc(N)nc2=O)C(O)C1O (configuration not stated)
RESULT: NO

----------
# Test system: SN12C
# assay-procedure: NCI tumour cell line growth inhibition, 48 h
The source made the active and inactive calls. Cut-off read from the data, not from the text of the source: active = GI50 up to about 1.1 µM and inactive = higher.
A correct response names exactly one class from active, inactive

compound=O=c1sc2c(s1)SSSSS2 target_of_assay=SN12C category=inactive
compound="CC(C)(C)OC(=O)N1N=NC2C1C1CC(OCc3ccccc3)(OCc3ccccc3)C2O1 (stereo unspecified)" target_of_assay=SN12C category=inactive
compound=COc1ccc(CNc2nc3ccccc3nc2-c2cccs2)cc1OC target_of_assay=SN12C category=inactive
compound=COCCN(CCNC(=O)c1cccc2c(N)c3cccc(C)c3nc12)CCOC target_of_assay=SN12C category=active
compound=C#C[C@]1(O)CC[C@H]2[C@@H]3CCc4cc(OC(=O)c5cccc6cc7ccccc7nc56)ccc4[C@H]3CC[C@@]21C target_of_assay=SN12C category=inactive

QUERY: // outcome(item) with item = O=Cc1c(-c2ccccc2)nc2ccccc2c1O
RESULT: inactive

QUERY: // outcome(item) with item = Cc1cc(Cc2cc(C)c(N)cc2N)c(N)cc1N
RESULT: inactive

QUERY: // outcome(item) with item = O=C1C(SCCO)=C(SCCO)C(=O)c2ccccc21
RESULT: inactive

QUERY: // outcome(item) with item = O=C1C(Sc2ccc3ccccc3c2)=C(Sc2ccc3ccccc3c2)C(=O)c2ccccc21
RESULT: inactive

QUERY: // outcome(item) with item = CCn1c2ccccc2c2nnc(NCCCO)nc21
RESULT: inactive

QUERY: // outcome(item) with item = CCOC(=O)c1c(N2CCCC2)ncn(C)c1=S
RESULT: inactive

----------
Measured GI50 by item
# Test system: 786-0
# assay-procedure: NCI tumour cell line growth inhibition, 48 h
Activity calls are given as the source filed them. Rule as the data show it: active = GI50 up to about 1.1 µM and inactive = higher.

Worked set:
compound="COc1ccc(C(=O)O[C@H]2CC[C@@]3(C)[C@@H]4CC[C@H]5[C@]6(O)C[C@H](O)[C@@]7(O)[C@@H](CN8C[C@@H](C)CC[C@H]8[C@@]7(C)O)[C@]6(O)C[C@@]53OC24O)cc1OC [VERATRIDINE]" result="> 100 µM (inactive)"
compound=CC(C)NC(NC(C)C)=C(S(=O)(=O)C(F)(F)C(F)(F)C(F)(F)C(F)(F)F)S(=O)(=O)C(F)(F)C(F)(F)C(F)(F)C(F)(F)F result="> 100 µM (inactive)"

Attention now turns to another entry.
QUERY: Entry under review: O=C1c2ccccc2C(=O)N1C1(C(=O)NC2(C(=O)O)CCCC2)CCCC1 . Reported GI50?
RESULT: > 100 µM (inactive)
